B1: ZBTB22 (parent)
chain: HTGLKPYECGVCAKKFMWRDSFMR

- Variants of: B1
- Test: protein stability index of a GFP-peptide fusion (GPS, HEK-293T) (PSI 1-6); higher = more stable;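 also: lentivirally expressed fusions sorted by FACS into six bins by GFP to DsRed ratio, PSI derived from sequencing read proportions per bin multiplied by bin number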
- Test settings: c terminus: a fixed tail appended
The entries below are paired with their reported protein stability index.
# respond with the number and nothing more

As a guide, the following entries are already answered.
Variant name: C9N
protein stability index: 2.26
//
Variant name: G10Q
protein stability index: 2.19
//
Variant name: D20Q
protein stability index: 1.74
//
Variant name: P6H
protein stability index: 2.3
//
Variant name: S21Q
protein stability index: 1.83

Summary for this variant, "R24L" : protein stability index is 3.44

Summary for this variant, "T2E" : protein stability index is 2.67

Summary for this variant, "M17P" : protein stability index is 2.35
